Measured IC50, listed per entry for reference.
molecular target: EGFR mutant L858R (Homo sapiens, UniProt P00533, L858R); construct: truncated human JAK3, EGFR mutants such as del E746-A750; purchased Carna Biosciences; experiment: Kinase inhibition assay, EGFR L858R; type: biochemical; details: read-out: EGFR mutants L858R;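 further: truncated human EGFR L858R kinase with compound preincubation, ULight-PolyGT peptide phosphorylation read by Europium-antibody Lance detection, IC50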
Sequence (P00533 669-1210 L858R limits assumed): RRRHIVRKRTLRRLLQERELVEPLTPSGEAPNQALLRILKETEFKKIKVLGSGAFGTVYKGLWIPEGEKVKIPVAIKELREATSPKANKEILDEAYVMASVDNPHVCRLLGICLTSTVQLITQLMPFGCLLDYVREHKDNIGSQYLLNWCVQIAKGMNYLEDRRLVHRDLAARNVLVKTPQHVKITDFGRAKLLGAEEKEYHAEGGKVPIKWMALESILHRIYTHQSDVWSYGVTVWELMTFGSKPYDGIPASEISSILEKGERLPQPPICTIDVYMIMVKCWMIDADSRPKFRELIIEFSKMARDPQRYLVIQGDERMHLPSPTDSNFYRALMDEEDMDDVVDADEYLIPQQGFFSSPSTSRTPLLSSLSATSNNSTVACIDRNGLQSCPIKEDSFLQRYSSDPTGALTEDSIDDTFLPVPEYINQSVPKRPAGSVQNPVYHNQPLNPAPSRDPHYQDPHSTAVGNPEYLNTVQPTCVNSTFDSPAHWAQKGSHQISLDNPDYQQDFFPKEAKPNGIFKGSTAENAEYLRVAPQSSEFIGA

Given the compound C=CC(=O)Nc1cc(Nc2nccc(-n3cc(CN4CCC4)c(C4CC4)n3)n2)c(OC)cc1N(C)C1COC1 , what is its reported IC50?
< 20 nM

What about C=CC(=O)Nc1cc(Nc2nccc(-n3cc(CN4CCC4)c(-c4ccc(F)cc4)n3)n2)c(OC)cc1N1CCOCC1 ?
20 to 200 nM

Same question for C=CC(=O)Nc1cc(Nc2nccc(-n3cc(CN4CC(OC)C4)c(C)n3)n2)c(OC)cc1N1CCOCC1 please.
20 to 200 nM

Next compound up: C=CC(=O)Nc1cc(Nc2nccc(-n3cc(CN4CCC4)c(C(C)C)n3)n2)c(OC)cc1N1CCOCC1
< 20 nM

Can you check C=CC(=O)Nc1cc(Nc2nccc(-n3cc(CN4CCC4)c(C)n3)n2)c(OC)cc1N1CCOCC1 next?
< 20 nM

----------
target: EGFR mutant T790M (Homo sapiens, UniProt P00533, T790M); construct: truncated human JAK3, EGFR mutants such as del E746-A750; assay: Kinase inhibition assay, EGFR mutant T790M; settings: biochemical potency;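 further: truncated human EGFR mutant enzyme preincubated two hours with compound, then ATP plus ULight-PolyGT peptide for one hour, Europium-labeled antibody LANCE detection, IC50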
Sequence (P00533 669-1210 T790M limits assumed): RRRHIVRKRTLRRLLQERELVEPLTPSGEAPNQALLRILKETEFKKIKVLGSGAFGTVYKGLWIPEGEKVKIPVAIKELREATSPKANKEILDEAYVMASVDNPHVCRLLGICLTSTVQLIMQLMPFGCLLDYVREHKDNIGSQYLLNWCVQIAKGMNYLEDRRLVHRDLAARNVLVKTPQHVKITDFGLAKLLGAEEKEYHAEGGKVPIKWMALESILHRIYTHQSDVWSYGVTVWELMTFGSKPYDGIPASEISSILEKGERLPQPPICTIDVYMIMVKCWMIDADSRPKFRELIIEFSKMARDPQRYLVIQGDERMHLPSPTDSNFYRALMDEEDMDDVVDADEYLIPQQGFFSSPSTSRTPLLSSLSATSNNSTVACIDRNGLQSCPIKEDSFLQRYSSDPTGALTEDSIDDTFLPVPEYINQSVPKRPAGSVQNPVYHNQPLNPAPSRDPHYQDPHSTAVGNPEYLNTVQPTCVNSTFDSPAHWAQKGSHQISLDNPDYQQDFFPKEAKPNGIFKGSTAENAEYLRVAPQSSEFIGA
pIC50: −log10 of the molar value.
Items are presented alongside their recorded pIC50.

Example entries begin here.
INSERT INTO measurements (molecule, property_label, recorded_measurement) VALUES
  ('Cc1cc(C)cc(Nc2nccc(-n3cc(CN4CC(O)C4)c(C)n3)n2)c1 [Compound 147, reference compound]', 'pIC50', '< 6.00'),
  ('C=CC(=O)Nc1cc(Nc2nccc(-n3cc(CN4CCC4)c(-c4ccccc4)n3)n2)c(OC)cc1N1CCN(C(C)=O)CC1', 'pIC50', '> 7.70'),
  ('C=CC(=O)Nc1cc(Nc2ncc(C)c(-n3cc(CN4CCOCC4)cn3)n2)c(OC)cc1N1CCN(C)CC1', 'pIC50', '> 7.70');

Which pIC50 is reported for this molecule? C=CC(=O)Nc1cc(Nc2ncc(F)c(-n3cc(CN(C)C)c(-c4ccoc4)c3)n2)c(OC)cc1N1CCOCC1
> 7.70

----------
Items are presented alongside their recorded pIC50.
system: H2073 (EGFR wildtype); assay: Cell viability assay, H2073; type: cell-based; details: NCI-H2073; cellular potency; 72-hour incubation; ATPLite;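 further: NSCLC cell line whose survival relies on wildtype EGFR, treated with serially diluted compound, cytotoxic effect judged from remaining cell viability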
pIC50: −log10 of the molar value.

Check out these entries, answers already filled in.
INSERT INTO assay_data (compound, target_or_test_system, property_label, recorded_measurement) VALUES
  ('C=CC(=O)Nc1cc(Nc2nccc(-n3cc(CN(C)C)c(C(C)C)n3)n2)c(OC)cc1N1CCOCC1', 'H2073 (EGFR wildtype)', 'pIC50', '6.00 to 6.70'),
  ('C=CC(=O)Nc1cc(Nc2nccc(-n3cc(CN(C)C)c(C(C)(C)C)n3)n2)c(OC)cc1N(C)CCOC', 'H2073 (EGFR wildtype)', 'pIC50', '< 6.00'),
  ('Cc1cc(C)cc(Nc2nccc(-n3cc(CN4CC(O)C4)c(C)n3)n2)c1 [Compound 147, reference compound]', 'H2073 (EGFR wildtype)', 'pIC50', '< 6.00'),
  ('C=CC(=O)Nc1cc(Nc2nccc(-n3cc(CN(C)CC)c(-c4ccccc4)n3)n2)c(OC)cc1N1CCOCC1', 'H2073 (EGFR wildtype)', 'pIC50', '< 6.00'),
  ('C=CC(=O)Nc1cc(Nc2nccc(-n3cc(CN4CCC4)c(C)n3)n2)c(OC)cc1N1CCOCC1', 'H2073 (EGFR wildtype)', 'pIC50', '< 6.00');

Let us move to another entry and its pIC50.
Suppose we examine the compound C=CC(=O)Nc1cc(Nc2ncc(C)c(-n3cc(CN4C[C@@H](O)[C@@H](O)C4)c(C)n3)n2)c(OC)cc1N1CCOCC1 ; what pIC50 value has been reported?
< 6.00
